assay: solvent given as SMILES; settings: in O
REPORTED PROPERTY: solvation free energy, 298 K (kcal/mol)
Number in kcal/mol, nothing else.

MOLECULE	MEASURE UNIT	solvation free energy, 298 K
CN1C(=O)C(O)N=C(c2ccccc2)c2cc(Cl)ccc21 (stereo not given)	kcal/mol	-15.2

Data request: Data request, read-out solvation free energy, 298 K, for CCC=CCC=CCC=CCCCCCCCC(=O)OC
Data returned: -3.47

Data request: What solvation free energy, 298 K value was documented for this molecule, C=C1CCC23C(C)CCC(C(C)C)C2C13 (stereo not given) ?
Data returned: 0.63

Data request: Return reported solvation free energy, 298 K; argument: Clc1ccc(-c2cc(Cl)c(Cl)cc2Cl)cc1Cl
Data returned: -3.36

Data request: I'd like to know its solvation free energy, 298 K. The molecule in question is COc1cccc(OC)c1O
Data returned: -6.96

Data request: Form field: reported solvation free energy, 298 K of Clc1ccccc1
Data returned: -1.14

Origin of values: the CombiSolv-Exp solvation set (Vermeire and Green 2021)
